# key: entry, value: switch fluorescence ratio
# Test system: ATP;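 note: ATP exposure 15 min at 22 °C before imaging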
# Protocol Description: switch fluorescence ratio, 500 uM ATP over buffer (Cy3 cluster intensity, sum of 5 cycles each) (fold (ratio)); higher = stronger signal-on switching upon ATP binding; sequences stand for … in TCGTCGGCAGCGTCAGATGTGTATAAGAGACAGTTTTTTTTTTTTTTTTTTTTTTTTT…TC
# Run Conditions: aptamer strand: ATP DNA aptamer (quencher-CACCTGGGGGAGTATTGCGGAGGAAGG + anchor), 100 nM annealed; ATP concentration: 500 uM
Readout Label: switch fluorescence ratio

>>> df
    monomer_sequence              readout_label  number
 0        TAAGAGGGAG  switch fluorescence ratio   0.966
 1        GTCGATTTTT  switch fluorescence ratio   0.992
 2        GAACGGAGGC  switch fluorescence ratio   0.978
 3        GCGTAAGACC  switch fluorescence ratio    1.07
 4        TAATTTCTTA  switch fluorescence ratio   0.996
 5        GACGACGATG  switch fluorescence ratio    1.02
 6        TGGGGATCGG  switch fluorescence ratio   0.973
 7        AGGATGAATA  switch fluorescence ratio   0.997
 8        CTTTGGCGCC  switch fluorescence ratio   0.986
 9        TTTTGAGCAT  switch fluorescence ratio    1.07
10        TGAGCTGGGG  switch fluorescence ratio   0.996
11        TTGCTGGCGC  switch fluorescence ratio    1.04
12        CGAATTGGTA  switch fluorescence ratio   0.982
13        GGGTCAATGG  switch fluorescence ratio    1.04
14        TATGAGGGCG  switch fluorescence ratio    1.04
15        GAGACCAATC  switch fluorescence ratio    1.02
16        ATTGCCGCTC  switch fluorescence ratio    1.04
17        GCGGTCAAAT  switch fluorescence ratio       1
18        ACACCACGTT  switch fluorescence ratio    1.56
19        CCCTGTGAAA  switch fluorescence ratio   0.975
20        GGGAGGTCAT  switch fluorescence ratio   0.973
21        TTCGAAAAAT  switch fluorescence ratio    1.05
22        CGGCTGACTG  switch fluorescence ratio    1.05
23        TGTGGTGGAG  switch fluorescence ratio   0.962
24        TTAGGGCCTA  switch fluorescence ratio   0.984
25        ATTATTTGGT  switch fluorescence ratio    1.01
26        AAAAGAATCG  switch fluorescence ratio   0.996
27        TAGACGGATT  switch fluorescence ratio    1.04
28        GGCTTTTGGA  switch fluorescence ratio   0.982
29        GTTCTTGTAA  switch fluorescence ratio    1.02
30        GAAATGTGGT  switch fluorescence ratio   0.997
31        AAAGTATCAG  switch fluorescence ratio       1
32        GGGAAGGTAT  switch fluorescence ratio   0.992
33        TAAGTTGACT  switch fluorescence ratio    1.06
34        TTCATCGAGC  switch fluorescence ratio    1.02
35        TTTTACCCGC  switch fluorescence ratio    1.11
36        GCTGGGGGCG  switch fluorescence ratio   0.987
37        AAATTCATGG  switch fluorescence ratio   0.981

Entry source: the supplement of paper PMC10126150
